- System: CP191
- assayName: qHTS profiling for inhibitors of Plasmodium falciparum proliferation (AID 504749); also: nearly all actives have a fitted effect of over 60% in size
- particulars: P. falciparum in erythrocytes, SYBR Green DNA, 72 h; series mostly up to 28.7 µM
Results filed as inconclusive are left out. Active and inactive are the calls of the source. Calls follow the shape of the dose curve; as a rule, active = well fitted inhibition curve with a large enough effect; inconclusive = small, poorly fitted or top-dose-only effect; inactive = flat fitted curve, though single readings scatter.
Labels: YES = active, NO = inactive

| molecule | classLabel |
| --- | --- |
| CCCCc1ncc(/C=C(\Cc2cccs2)C(=O)O)n1Cc1ccc(C(=O)O)cc1 | NO |
| Cc1c(Cl)cccc1Nc1ccccc1C(=O)O | NO |
| CCCCN(CCCC)CCCOC(=O)c1ccc(N)cc1 | NO |
| CCn1cc(C(=O)O)c(=O)c2cnc(N3CCNCC3)nc21 | NO |
| CC[C@@]1(c2ccccc2)NC(=O)N(C)C1=O | NO |
| [O-][n+]1cccc(CO)c1 | NO |
| CC(=O)Oc1ccc(C2(c3ccc(OC(C)=O)cc3)C(=O)Nc3ccccc32)cc1 | NO |
| CCOC(CN1CCN(CC(C)C(=O)c2ccccc2)CC1)c1ccccc1 (centres undefined) | NO |
| Cc1ccc(C(C)C)cc2c(C)ccc1-2 | NO |
| O=S(=O)(O)NC1CCCCC1 | NO |
| C[C@H]1O[C@@H](n2cc(F)c(=O)[nH]c2=O)[C@H](O)[C@@H]1O | NO |
| NC1CCN(c2cccc(Cl)n2)CC1 | NO |
| CCN(CC)CCNC(=O)c1c(C)[nH]c(/C=C2\C(=O)Nc3ccc(F)cc32)c1C | YES |
| CC(=O)CCC(=O)O | NO |
| CC(O)COc1ccccc1 (centres undefined) | NO |
| NC(=O)NC(=O)Cc1ccccc1 | NO |
| CCCCCCCCCCCCCCCCCCOCC(O)CO (centres undefined) | NO |
| NC(=O)NNc1ccccc1 | NO |
| C[C@H](N)[C@H](O)c1cccc(O)c1 | NO |
| CC(=O)c1ccc2c(c1)N(CCCN(C)C)c1ccccc1S2 | NO |
| CCC(=O)Nc1ccc(O)cc1 | NO |
| Cn1c(=O)c2c(ncn2CC2OCCO2)n(C)c1=O | NO |
| NCC(=O)CCC(=O)O | NO |
| CC(=O)NC(Cc1ccccc1)C(=O)O (centres undefined) | NO |
| CCCCOc1cc(C(=O)OCCN(CC)CC)ccc1N | NO |
| CC1(C)OC(=O)NC1=O | NO |
| CCCCCCCCCCCCCCCC(=O)NCCO | NO |
| Nc1nc2c(ncn2CCC(CO)CO)c(=O)[nH]1 | NO |
| Cc1cc2c(cc1S(N)(=O)=O)S(=O)(=O)CCC2 | NO |
| CC(=O)Nc1ccc(/C=N/NC(N)=S)cc1 | NO |
| O=c1[nH]c(=O)c2[nH]c(=O)[nH]c2[nH]1 | NO |
| CC12CCC(CC1)C(C)(C)O2 | NO |
| CC1=C(/C=C/C(C)=C/C=C/C(C)=C/C(=O)O)C(C)(C)CCC1 | NO |
| Nc1ccc(S(=O)(=O)Nc2ccc(Cl)nn2)cc1 | YES |
| CCCCC(CC)COC(=O)c1ccccc1O (centres undefined) | NO |
| Nc1ccc(S(=O)(=O)NC(=O)c2ccccc2)cc1 | NO |
| CCC(=O)c1ccc(O)cc1 | NO |
| O=S(=O)(O)c1cc(I)c(O)c2ncccc12 | NO |
| COc1cc(C(=O)N2CCOCC2)cc(OC)c1OC | NO |
| Cc1cc(CC(=O)O)n(C)c1C(=O)c1ccc(Cl)cc1 | NO |
| O=C(Oc1ccccc1C(=O)O)c1ccccc1O | NO |
| CCOC(=O)[C@H](CCc1ccccc1)N[C@@H](C)C(=O)N1C(=O)N(C)C[C@H]1C(=O)O | NO |
| NS(=O)(=O)c1cc2c(cc1Cl)NC(CSCc1ccccc1)=NS2(=O)=O | NO |
| OCC(O)CN1CCN(c2ccccc2)CC1 (centres undefined) | NO |
| O=C(O)CC(O)C(=O)O (centres undefined) | NO |
| COc1cc2[nH]c(=O)[nH]c(=O)c2cc1OC | NO |
| CCCn1cnc2c1c(=O)n(CCCCC(C)=O)c(=O)n2C | NO |
| O=C(O)[C@@H]1CSCN1 | NO |
| CCOc1nc2cccc(C(=O)O)c2n1Cc1ccc(-c2ccccc2-c2nn[nH]n2)cc1 | NO |
| CCN(CC)CCSC(=O)C(c1ccccc1)c1ccccc1 | NO |
| OCCN1CCN(CCCN2c3ccccc3Sc3ccc(Cl)cc32)CC1 | YES |
| O=C(O)c1ccccn1 | NO |
| NC(CSCC(=O)O)C(=O)O (centres undefined) | NO |
| O=C(O)c1ccccc1-c1ccc(C(F)(F)F)cc1 | NO |

----------
- Tested on: Hek293T
- assayName: Primary qHTS to identify gynecologic anti-cancer compounds using libraries of approved drugs and bioactive compounds (AID 1345084); also: % is scaled to controls: 0 for no effect and ±100 for the full control effect; nearly all actives have a fitted effect of over 55% in size
- particulars: Gynecologic cancer cell panel viability, ATPlite luminescence, 48 h, control line for the selectivity index; series mostly up to 57.5 µM
Inconclusive results are not listed. Calls of active or inactive are those of the source. Calls follow the shape of the dose curve; as a rule, active = well fitted cell-killing curve with a large enough effect; inconclusive = small, poorly fitted or top-dose-only effect, or effect the other way; inactive = flat fitted curve, though single readings scatter.
readout: activity change, negative = cytotoxicity

| molecule | observedValue |
| --- | --- |
| Cc1ncc([N+](=O)[O-])n1CC(O)CCl (stereo unspecified) | inactive |
| Nc1cc(=O)[nH]c(N)n1 | inactive |
| C[C@@H]1CC[C@@]2(OC1)O[C@H]1C[C@H]3[C@@H]4CC[C@H]5C[C@@H](O)CC[C@]5(C)[C@H]4CC(=O)[C@]3(C)[C@H]1[C@@H]2C | 7.28% [at 6.55 µM] (inactive) |
| C[C@](N)(Cc1ccc(O)cc1)C(=O)O | -0.946% [at 6.55 µM] (inactive) |
| CCCc1c(OCCCCc2nn[nH]n2)ccc(C(C)=O)c1O | inactive |
| CC(=O)NC(Cc1ccccc1)C(=O)O (stereo unspecified) | inactive |

----------
- assayName: qHTS of pediatric cancer cell lines to identify multiple opportunities for drug repurposing: Primary screen for TC32 cells (AID 1347089); also: % is scaled to controls: 0 for no effect and ±100 for the full control effect; nearly all actives have a fitted effect of over 60% in size
- particulars: TC32 Ewing sarcoma viability, CellTiter-Glo luminescence, 48 h; series mostly up to 45.8 µM
Records with an inconclusive call do not appear. The source made the active and inactive calls. Calls follow the shape of the dose curve; as a rule, active = well fitted cell-killing curve with a large enough effect; inconclusive = small, poorly fitted or top-dose-only effect; inactive = flat fitted curve, though single readings scatter.
readout: activity change, negative = cytotoxic

| molecule | observedValue |
| --- | --- |
| O=c1[nH]c(=O)c2[nH]c(=O)[nH]c2[nH]1 | -9.56% [at 9.17 µM] (inactive) |
| CCCCCCCCCCCCOS(=O)(=O)O | inactive |
| CNCC(O)c1ccc(O)c(O)c1 (stereo unspecified) | inactive |
| COc1ccc(S(=O)(=O)Nc2nnc(CC(C)C)s2)cc1 | inactive |
| NC(=O)c1ncn([C@@H]2O[C@H](CO)[C@@H](O)[C@H]2O)c1N | inactive |
| OCC(CO)N[C@H]1C[C@](O)(CO)[C@@H](O)[C@H](O)[C@H]1O | inactive |

----------
- Tested on: W2
- assayName: qHTS profiling for inhibitors of Plasmodium falciparum proliferation (AID 504749); also: nearly all actives have a fitted effect of over 60% in size; also: potency is read from the fitted curve at half-maximal effect
- particulars: P. falciparum in erythrocytes, SYBR Green DNA, 72 h; series mostly up to 28.7 µM
Results filed as inconclusive are left out. Calls of active or inactive are those of the source. Calls follow the shape of the dose curve; as a rule, active = well fitted inhibition curve with a large enough effect; inconclusive = small, poorly fitted or top-dose-only effect; inactive = flat fitted curve, though single readings scatter.
readout: Potency

| molecule | readout | observedValue |
| --- | --- | --- |
| CC(O)CN(CCN(CC(C)O)CC(C)O)CC(C)O (stereo not drawn) | Potency | inactive |
| O=C1O[C@H]([C@@H](O)CO)C(O)=C1O | Potency | inactive |
| C[C@@H]1CN(c2c(F)c(F)c3c(=O)c(C(=O)O)cn(C4CC4)c3c2F)C[C@H](C)N1 | Potency | inactive |
| Cc1c(O)cccc1C(=O)N[C@@H](CSc1ccccc1)[C@H](O)CN1C[C@H]2CCCC[C@H]2C[C@H]1C(=O)NC(C)(C)C | Potency | 8.49 µM (active) |
| NC(CSCC(=O)O)C(=O)O (stereo not drawn) | Potency | inactive |
| O=C(O)c1ccccc1O | Potency | inactive |
| O=C(Oc1ccccc1C(=O)O)c1ccccc1O | Potency | inactive |
| CC(C)(C)NCC(O)COc1ccc(NC(=O)NC2CCCCC2)cc1 (stereo not drawn) | Potency | inactive |
| C[C@]12C[C@H](O)[C@H]3[C@@H](CCC4=CC(=O)CC[C@@]43C)[C@@H]1CC[C@@H]2C(=O)CO | Potency | inactive |
| Nc1ccc(S(=O)(=O)Nc2ccccc2)cc1 | Potency | inactive |
| CC(C)(C)C(=O)C(Oc1ccc(Cl)cc1)n1ccnc1 (stereo not drawn) | Potency | 6.01 µM (active) |
| O=C(O)c1ccccc1-c1ccc(C(F)(F)F)cc1 | Potency | inactive |
| CC1(C)CO[C@@H](CC(=O)O)CN1 | Potency | inactive |
